test: Inhibition of recombinant N-terminal His-tagged HRV 3C protease expressed in Escherichia coli preincubated for 15 mins followed by LEVLFQGPSK substrate addition after 45 mins by reverse-phase HPLC analysis; design: species or system Human rhinovirus sp.
experimental_endpoint: IC50

line_notation: CC1(C)O[C@H](C(=O)Nc2nc3ccccc3s2)[C@@H](C(=O)N2CCN(Cc3ccccc3)CC2)O1
IC50: > 10 µM
//
line_notation: CC1(C)O[C@@H](C(=O)Nc2nc3ccccc3s2)[C@H](C(=O)N2CCN(c3ccccn3)CC2)O1
IC50: 10.6 µM
//
line_notation: COc1cccc(NCCNC(=O)[C@@H]2OC(C)(C)O[C@H]2C(=O)Nc2nc3ccccc3s2)c1
IC50: 8.28 µM

Task: May I ask what IC50 has been recorded for `CC1(C)O[C@@H](C(=O)Nc2nc3ccccc3s2)[C@H](C(=O)N2CCN(c3ccccc3)CC2)O1` ?
Result: 8.57 µM

Task: Now consider `CC1(C)O[C@H](C(=O)Nc2nc3ccccc3s2)[C@@H](C(=O)N2CCN(c3ccccc3C#N)CC2)O1` .
Result: > 10 µM

Task: Now consider `Cc1cccc(CN2CCN(C(=O)[C@H]3OC(C)(C)O[C@@H]3C(=O)Nc3nc4ccccc4s3)CC2)c1` .
Result: > 10 µM

Task: Now consider `COc1cccc(NCCNC(=O)[C@H]2OC(C)(C)O[C@@H]2C(=O)Nc2nc3ccccc3s2)c1` .
Result: > 10 µM

Task: Now consider `CC1(C)O[C@H](C(=O)Nc2nc3ccccc3s2)[C@@H](C(=O)N2CCN(c3ccccc3)CC2)O1` .
Result: > 10 µM

Task: Now consider `CC1(C)O[C@H](C(=O)Nc2nc3ccccc3s2)[C@@H](C(=O)N2CCN(c3ccccn3)CC2)O1` .
Result: > 10 µM

Task: Now consider `Cc1cccc(CN2CCN(C(=O)[C@@H]3OC(C)(C)O[C@H]3C(=O)Nc3nc4ccccc4s3)CC2)c1` .
Result: > 10 µM

Task: Now consider `CC1(C)O[C@@H](C(=O)Nc2nc3ccccc3s2)[C@H](C(=O)N2CCN(c3ccccc3C#N)CC2)O1` .
Result: 2.5 µM

Task: Now consider `COc1cccc(NCCNC(=O)[C@@H]2OC(C)(C)O[C@H]2C(=O)Nc2ccc3ccccc3c2)c1` .
Result: > 10 µM

Task: Now consider `CC1(C)O[C@@H](C(=O)Nc2nc3ccccc3s2)[C@H](C(=O)N2CCN(Cc3ccccc3)CC2)O1` .
Result: > 10 µM
